Reported inhibition at 0.1 µM values for a set of compounds
biological target: thromboxane A2 receptors (TPα) of human platelets (Homo sapiens, UniProt P21731); construct: endogenous in cells; host or cells: human platelets; test: Binding test: displacement of [3H]SQ-29.548 from human platelet thromboxane A2 receptors; conditions: read-out: Affinity: percent of [3H]SQ-29.548 specifically substituted by the examined compound, compound 10^-7 M
Answer in %, number only, no unit symbol.

Cc1cccc(C)c1Nc1ccc([N+](=O)[O-])cc1S(=O)(=O)NC(=O)NC(C)C 90.8
C[C@H](Nc1ccc([N+](=O)[O-])cc1S(=O)(=O)NC(=O)NC(C)(C)C)c1ccccc1 71.6
CCCCNC(=O)NS(=O)(=O)c1cc([N+](=O)[O-])ccc1NC1CCCCC1 98
Cc1ccc(C)c(Nc2ccc([N+](=O)[O-])cc2S(=O)(=O)NC(=O)NC(C)C)c1 83.5

Now let's try a different one.
Assign inhibition at 0.1 µM to the following record: CC(C)(C)NC(=O)NS(=O)(=O)c1cc([N+](=O)[O-])ccc1NC1CCCCC1
95.4

###

molecular target: thromboxane A2 receptors (TPα) of human platelets (Homo sapiens); construct: endogenous in cells; host or cells: human platelets; test: Binding test: displacement of [3H]SQ-29.548 from human platelet thromboxane A2 receptors; conditions: read-out: Affinity: percent of [3H]SQ-29.548 specifically substituted by the examined compound, compound 10^-6 M
Reported inhibition at 1 µM values for a set of compounds
Answer in %, number only, no unit symbol.

Assign inhibition at 1 µM to the following record: CCCCCNC(=O)NS(=O)(=O)c1cc(C#N)ccc1NC1CCCCC1
89.7

Assign inhibition at 1 µM to the following record: CCCCCCNC(=O)NS(=O)(=O)c1cc([N+](=O)[O-])ccc1NC1CCCCC1
98.5

Assign inhibition at 1 µM to the following record: Cc1ccc(C)c(Nc2ccc([N+](=O)[O-])cc2S(=O)(=O)NC(=O)NC(C)C)c1
96.6

###

Reported inhibition at 1 µM values for a set of molecules
Biological target: thromboxane A2 receptors (TPα) of human platelets (Homo sapiens)
Construct: endogenous in cells; host or cells: human platelets
Sequence (P21731 1-343): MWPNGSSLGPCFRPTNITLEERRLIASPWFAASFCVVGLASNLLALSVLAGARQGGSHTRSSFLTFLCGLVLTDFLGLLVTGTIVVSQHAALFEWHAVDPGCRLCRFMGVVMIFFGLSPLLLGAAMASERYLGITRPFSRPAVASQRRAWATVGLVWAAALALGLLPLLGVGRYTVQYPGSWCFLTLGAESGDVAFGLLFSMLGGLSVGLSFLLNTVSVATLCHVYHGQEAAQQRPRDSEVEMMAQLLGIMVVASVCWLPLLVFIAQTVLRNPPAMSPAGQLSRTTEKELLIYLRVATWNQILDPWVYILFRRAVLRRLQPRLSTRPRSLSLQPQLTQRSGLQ
Test: Binding test: displacement of [3H]SQ-29.548 from human platelet thromboxane A2 receptors
Settings: read-out: Affinity: percent of [3H]SQ-29.548 specifically substituted by the examined compound, compound 10^-6 M
Answer in %, number only, no unit symbol.

Some solved entries appear below for comparison.
Molecule	inhibition at 1 µM, %
CC(C)(C)NC(=O)NS(=O)(=O)c1cc([N+](=O)[O-])ccc1NC1CC2CCC1C2 (stereo not drawn) [Compound 55]	98.2
CCCCCCCCNC(=O)NS(=O)(=O)c1cc([N+](=O)[O-])ccc1NC1CCCCC1 [Compound 85]	92.9

Now let's try a different one.
Assign inhibition at 1 µM to the following record: CC(C)(C)NC(=O)NS(=O)(=O)c1cc([N+](=O)[O-])ccc1NC1CCCCCC1 [Compound 25]
100
